Molecular target: Serine/threonine-protein kinase Chk2 (Homo sapiens) (UniProt O96017)
Sequence (O96017 whole entry): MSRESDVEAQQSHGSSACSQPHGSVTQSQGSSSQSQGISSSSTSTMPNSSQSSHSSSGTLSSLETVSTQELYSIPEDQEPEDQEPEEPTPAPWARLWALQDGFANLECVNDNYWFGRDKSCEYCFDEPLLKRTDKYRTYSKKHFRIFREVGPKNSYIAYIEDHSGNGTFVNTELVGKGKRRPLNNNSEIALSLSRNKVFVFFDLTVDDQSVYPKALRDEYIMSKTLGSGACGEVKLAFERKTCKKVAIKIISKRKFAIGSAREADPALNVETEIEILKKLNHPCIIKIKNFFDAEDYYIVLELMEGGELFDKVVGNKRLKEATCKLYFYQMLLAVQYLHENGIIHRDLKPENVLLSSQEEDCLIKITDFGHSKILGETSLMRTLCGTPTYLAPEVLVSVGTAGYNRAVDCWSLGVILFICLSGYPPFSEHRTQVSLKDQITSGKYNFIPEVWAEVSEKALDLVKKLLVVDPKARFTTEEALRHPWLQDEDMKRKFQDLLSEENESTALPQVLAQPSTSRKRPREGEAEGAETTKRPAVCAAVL
Conditions: at 1 µM
readout-kind: residual activity (%)
Please give a number only; it is taken to be in %.

# annotated cases, reported residual activity shown
{"columns": ["compound", "value-unit", "residual activity"],
 "data": [
  ["N#CC(C#N)=C(N)/C(C#N)=C/c1ccc(O)cc1", "%", 88],
  ["CC[n+]1c(/C=C/N(C)c2ccccc2)n(-c2ccccc2)c2ccc(-c3nc4ccccc4s3)cc21", "%", 92],
  ["Oc1ccc(-c2nc(-c3ccc(F)cc3)c(-c3ccncc3)[nH]2)cc1", "%", 89],
  ["CCN(CC)CCCCN1c2ccccc2Oc2ccc(Cl)cc21", "%", 94]
]}

Q) Annotate the compound `CNc1cc2c(Nc3cccc(Br)c3)ncnc2cn1` with its measured residual activity.
A) 97

Q) Read the entry `CO[C@@H]1[C@H](N(C)C(=O)c2ccccc2)C[C@H]2O[C@]1(C)n1c3ccccc3c3c4c(c5c6ccccc6n2c5c31)C(=O)NC4` and write its reported residual activity.
A) 79

Q) Input `O=C(O)c1ccc2c3c1cccc3c(=O)n1c3ccccc3nc21` , output reported residual activity.
A) 86

Q) Give residual activity for `Oc1c2ccccc2c2c3c(cccc13)N=N2`
A) 29

Q) Return residual activity for the following compound: `CC(=O)c1ccc(N2CCOCC2)cc1O`
A) 94

Q) Quote residual activity reported for `O=C(Nc1cccc(Nc2cc(Nc3cccc(C(F)(F)F)c3)ncn2)c1)C1CC1` please.
A) 97

Q) Give the reported residual activity for this compound. `CCOc1cc2ncnc(Nc3cccc(Br)c3)c2cc1OCC`
A) 91

Q) Answer with the recorded residual activity for the compound listed here: `COc1cc2ncnc(Nc3ccc(NC(=O)c4ccccc4)cc3)c2cc1OC`
A) 34

Q) Identify residual activity associated with the compound `N#Cc1cnc2cnc(NCc3cccnc3)cc2c1Nc1ccc(F)c(Cl)c1`
A) 49

Q) Tell me its residual activity given `Ic1cccc(CSc2nnc(-c3ccncc3)o2)c1` as the entry.
A) 72

Q) Indicate the recorded residual activity value for this compound: `Nc1nc(Nc2ccc(S(N)(=O)=O)cc2)nn1C(=S)Nc1c(F)cccc1F`
A) 4

Q) Annotate the compound `c1ccc2c(-c3ccncc3)c[nH]c2c1` with its measured residual activity.
A) 86

Q) Complete the entry with residual activity for `CC(=O)O/N=C1\C(=C2\C(=O)Nc3cc(Br)ccc32)Nc2ccccc21`
A) 71

Q) Give the value of residual activity reported for the following: `O=C1Nc2cc(Br)ccc2/C1=C1/Nc2ccccc2/C1=N\O`
A) 18

Q) Return residual activity (reported value) for this compound: `COc1cc2ncnc(N3CCN(C(=O)Nc4ccc(Oc5ccccc5)cc4)CC3)c2cc1OC`
A) 96

Q) # return recorded residual activity for entry `O=C(Nc1cccc(Nc2nccc(Nc3cccc(C(F)(F)F)c3)n2)c1)C1CC1`
A) 81

Q) Indicate its recorded residual activity; the compound in question is `C[C@@H](N)[C@H]1CC[C@H](C(=O)Nc2ccncc2)CC1`
A) 103

Q) Return value of residual activity for input `Cn1cnc2cc3c(Nc4cccc(Br)c4)ncnc3cc21` , no commentary.
A) 89

* * *

Target: Protein kinase C iota type (Homo sapiens) (UniProt P41743)
Sequence (whole entry): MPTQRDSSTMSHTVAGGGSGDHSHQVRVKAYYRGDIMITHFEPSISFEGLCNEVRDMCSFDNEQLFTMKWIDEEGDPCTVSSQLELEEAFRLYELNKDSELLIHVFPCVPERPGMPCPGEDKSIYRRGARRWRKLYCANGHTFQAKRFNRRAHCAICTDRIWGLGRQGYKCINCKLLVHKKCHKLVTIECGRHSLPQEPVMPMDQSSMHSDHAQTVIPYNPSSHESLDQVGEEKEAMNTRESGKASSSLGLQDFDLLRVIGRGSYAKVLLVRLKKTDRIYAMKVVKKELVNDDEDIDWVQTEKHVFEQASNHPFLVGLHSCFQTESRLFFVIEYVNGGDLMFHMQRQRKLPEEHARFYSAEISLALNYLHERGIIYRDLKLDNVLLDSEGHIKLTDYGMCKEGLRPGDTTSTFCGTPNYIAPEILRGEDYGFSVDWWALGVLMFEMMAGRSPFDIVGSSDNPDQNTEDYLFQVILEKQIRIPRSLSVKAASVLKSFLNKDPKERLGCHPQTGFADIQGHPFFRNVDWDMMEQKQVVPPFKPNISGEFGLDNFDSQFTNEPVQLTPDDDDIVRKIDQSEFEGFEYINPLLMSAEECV
Conditions: at 10 µM
readout-kind: residual activity (%)
// return numeric value only (unit: %, not printed)

Worked set:
{"columns": ["mol-smiles", "residual activity, %"],
 "data": [
  ["COc1ccc(C(=O)Nc2sc3c(c2C(N)=O)CCCC3)cc1OC", 107],
  ["Oc1ccc(Nc2nc(-c3ccc(Cl)cc3)cs2)cc1", 103],
  ["C[C@@H](N)[C@H]1CC[C@H](C(=O)Nc2ccncc2)CC1", 93],
  ["CC(C)n1cnc2/c(=N/c3cccc(Cl)c3)nc(NCCO)[nH]c21", 103],
  ["COc1cc2ncnc(Nc3ccc(Oc4ccccc4)cc3)c2cc1OC", 76]
]}

Q) Tell me residual activity reported for `CCC(=O)Nc1ccc2ncnc(Nc3cccc(Br)c3)c2c1`
A) 101

Q) For the compound `CC(C)n1cnc2c(NCc3ccccc3)nc(NCCCO)nc21` , report residual activity.
A) 105

* * *

Molecular target: Serine/threonine-protein kinase D1 (Homo sapiens) (UniProt Q15139)
Sequence (Q15139 whole entry): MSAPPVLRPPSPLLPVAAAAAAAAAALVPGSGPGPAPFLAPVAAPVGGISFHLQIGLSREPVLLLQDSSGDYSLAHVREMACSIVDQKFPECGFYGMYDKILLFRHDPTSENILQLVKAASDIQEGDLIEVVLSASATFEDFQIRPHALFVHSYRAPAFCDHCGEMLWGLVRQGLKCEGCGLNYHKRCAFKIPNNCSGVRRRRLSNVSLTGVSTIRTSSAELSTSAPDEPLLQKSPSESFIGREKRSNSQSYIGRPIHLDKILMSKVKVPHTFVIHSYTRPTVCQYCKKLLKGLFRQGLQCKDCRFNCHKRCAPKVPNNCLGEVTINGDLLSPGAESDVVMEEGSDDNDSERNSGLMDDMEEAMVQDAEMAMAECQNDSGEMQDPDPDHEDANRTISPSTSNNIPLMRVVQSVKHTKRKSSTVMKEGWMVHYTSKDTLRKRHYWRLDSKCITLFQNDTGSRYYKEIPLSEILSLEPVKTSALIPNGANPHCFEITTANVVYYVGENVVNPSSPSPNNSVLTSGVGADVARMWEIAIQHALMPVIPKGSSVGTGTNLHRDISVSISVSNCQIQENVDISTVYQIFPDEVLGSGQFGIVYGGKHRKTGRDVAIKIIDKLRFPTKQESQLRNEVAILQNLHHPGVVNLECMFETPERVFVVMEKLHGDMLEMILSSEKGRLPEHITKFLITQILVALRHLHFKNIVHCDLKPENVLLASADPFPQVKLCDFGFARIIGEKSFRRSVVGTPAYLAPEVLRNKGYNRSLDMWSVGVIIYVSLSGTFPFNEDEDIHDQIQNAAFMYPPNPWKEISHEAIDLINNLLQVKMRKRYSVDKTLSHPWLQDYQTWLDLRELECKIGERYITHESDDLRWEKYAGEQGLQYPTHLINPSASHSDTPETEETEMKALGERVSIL
Conditions: at 10 µM
residual activity values, listed per item
Answer in %, number only, no unit symbol.

{"columns": ["mol-smiles", "target-desc", "value-unit", "reported-measurement"],
 "data": [
  ["COc1cc2ncnc(Nc3ccc(NC(=O)c4ccccc4)cc3)c2cc1OC", "Serine/threonine-protein kinase D1 (Homo sapiens) (UniProt Q15139)", "%", 88],
  ["CCN(CC)C(=O)c1ccc(Nc2nc(OCC3CCCCC3)c3nc[nH]c3n2)cc1", "Serine/threonine-protein kinase D1 (Homo sapiens) (UniProt Q15139)", "%", 23],
  ["O=C(O)c1ccc2c3c1cccc3c(=O)n1c3ccccc3nc21", "Serine/threonine-protein kinase D1 (Homo sapiens) (UniProt Q15139)", "%", 57],
  ["Oc1c2ccccc2c2c3c(cccc13)N=N2", "Serine/threonine-protein kinase D1 (Homo sapiens) (UniProt Q15139)", "%", -1]
]}

Okay, now this molecule:
Q) Return residual activity for the following molecule: `Oc1n[nH]c2nnc(-c3c(-c4ccccc4)nn4ccccc34)cc12`
A) 71

* * *

Target: Serine/threonine-protein kinase haspin (Homo sapiens)
Conditions: at 1 µM
readout-kind: residual activity (%)
Unit % implied. Number only.

Worked cases, residual activity given:
{"columns": ["mol-smiles", "value-unit", "residual activity"],
 "data": [
  ["CCN(CC)CCCCN1c2ccccc2Oc2ccc(Cl)cc21", "%", 81],
  ["CCOc1cc2ncnc(Nc3cccc(Br)c3)c2cc1OCC", "%", 97],
  ["CC(C)n1cnc2/c(=N/c3cccc(Cl)c3)nc(NCCO)[nH]c21", "%", 80]
]}

Q) For the compound `COc1ccc(CNc2nc(N(CCO)CCO)nc3c2ncn3C(C)C)cc1` , give its reported residual activity.
A) 104

Q) Output residual activity of `O=C1NC(=O)/C(=C\c2ccc3nccnc3c2)S1`
A) 27

Q) For the compound `COc1cc2ncnc(N3CCN(C(=O)Nc4ccc(Oc5ccccc5)cc4)CC3)c2cc1OC` , give its measured residual activity value.
A) 79

* * *

# residual activity listing for each entry below
Target: Tyrosine-protein kinase HCK (Homo sapiens) (UniProt P08631)
Sequence (P08631 2-526 limits assumed): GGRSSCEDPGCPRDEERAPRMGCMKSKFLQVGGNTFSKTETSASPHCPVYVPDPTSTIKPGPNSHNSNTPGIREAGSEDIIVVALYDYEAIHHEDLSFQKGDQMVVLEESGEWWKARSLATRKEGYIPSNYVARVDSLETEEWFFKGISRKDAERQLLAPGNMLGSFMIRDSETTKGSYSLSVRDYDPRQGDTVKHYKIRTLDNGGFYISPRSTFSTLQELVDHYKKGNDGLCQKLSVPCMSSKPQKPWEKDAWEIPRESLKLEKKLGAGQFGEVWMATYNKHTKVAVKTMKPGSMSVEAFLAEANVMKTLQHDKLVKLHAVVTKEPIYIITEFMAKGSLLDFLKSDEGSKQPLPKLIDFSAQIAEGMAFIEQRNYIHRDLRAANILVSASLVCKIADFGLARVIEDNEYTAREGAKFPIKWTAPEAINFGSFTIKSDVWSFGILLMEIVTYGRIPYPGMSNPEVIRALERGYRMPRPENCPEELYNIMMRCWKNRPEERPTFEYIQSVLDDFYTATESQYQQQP
Details: at 10 µM

Q) For Tyrosine-protein kinase HCK (Homo sapiens) (UniProt P08631), give the measured residual activity of the entry `Cc1nc(-c2ccccc2)c(-c2ccncc2)o1`
A) 91%

Q) Lab note: record residual activity of `O=C1NC(=O)/C(=C\c2ccc3nccnc3c2)S1` tested on Tyrosine-protein kinase HCK (Homo sapiens) (UniProt P08631).
A) 90%

Q) Name the value of residual activity reported for `CC#CC(=O)Nc1cc2c(Nc3ccc(F)c(Cl)c3)ncnc2cn1` when tested on Tyrosine-protein kinase HCK (Homo sapiens) (UniProt P08631).
A) 88%

Q) Would you please give the reported residual activity of `Cn1nc2c3c(cccc31)C(=O)c1ccccc1-2` with Tyrosine-protein kinase HCK (Homo sapiens) (UniProt P08631)?
A) 92%

* * *

Molecular target: Tyrosine-protein kinase Yes (Homo sapiens) (UniProt P07947)
Sequence (P07947 2-543 limits assumed): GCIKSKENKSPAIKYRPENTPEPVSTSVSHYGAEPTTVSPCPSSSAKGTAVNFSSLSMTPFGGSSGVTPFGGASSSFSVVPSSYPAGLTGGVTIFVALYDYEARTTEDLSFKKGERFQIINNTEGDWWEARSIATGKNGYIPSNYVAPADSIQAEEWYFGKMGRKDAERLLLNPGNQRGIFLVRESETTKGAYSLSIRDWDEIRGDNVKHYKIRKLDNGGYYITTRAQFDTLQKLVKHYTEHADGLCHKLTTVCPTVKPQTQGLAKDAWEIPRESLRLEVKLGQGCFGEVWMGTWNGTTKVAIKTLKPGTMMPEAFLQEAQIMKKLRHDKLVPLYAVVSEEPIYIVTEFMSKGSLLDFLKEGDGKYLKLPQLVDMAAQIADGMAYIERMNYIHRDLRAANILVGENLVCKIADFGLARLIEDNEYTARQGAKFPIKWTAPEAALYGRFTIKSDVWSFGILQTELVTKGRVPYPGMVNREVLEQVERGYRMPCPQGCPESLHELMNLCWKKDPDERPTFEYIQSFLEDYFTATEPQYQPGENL
Details: at 1 µM
readout-kind: residual activity (%)
A number alone suffices; assume %.

Worked examples, 10 compounds total:
{"columns": ["compound", "target-desc", "value-unit", "reported-measurement"],
 "data": [
  ["Cc1ccc(NC2=CC(=O)c3sc(C)nc3C2=O)cc1", "Tyrosine-protein kinase Yes (Homo sapiens) (UniProt P07947)", "%", 118],
  ["COc1cc2ncnc(N3CCN(C(=O)Nc4ccc(Oc5ccccc5)cc4)CC3)c2cc1OC", "Tyrosine-protein kinase Yes (Homo sapiens) (UniProt P07947)", "%", 103],
  ["Oc1ccc(-c2nc(-c3ccc(F)cc3)c(-c3ccncc3)[nH]2)cc1", "Tyrosine-protein kinase Yes (Homo sapiens) (UniProt P07947)", "%", 105],
  ["CO[C@H]1C[C@@H]2CC[C@@H](C)[C@@](O)(O2)C(=O)C(=O)N2CCCC[C@H]2C(=O)O[C@H]([C@H](C)C[C@@H]2CC[C@@H](O)[C@H](OC)C2)CC(=O)[C@H](C)/C=C(\\C)[C@@H](O)[C@@H](OC)C(=O)[C@H](C)C[C@H](C)/C=C/C=C/C=C/1C", "Tyrosine-protein kinase Yes (Homo sapiens) (UniProt P07947)", "%", 103],
  ["Cc1nc(-c2ccccc2)c(-c2ccncc2)o1", "Tyrosine-protein kinase Yes (Homo sapiens) (UniProt P07947)", "%", 121],
  ["O=C1NC(=O)c2cc(Nc3ccc(F)cc3)c(Nc3ccc(F)cc3)cc21", "Tyrosine-protein kinase Yes (Homo sapiens) (UniProt P07947)", "%", 61],
  ["O=C1NC(=O)c2c1c1c3ccccc3[nH]c1c1[nH]c3cc(Br)ccc3c21", "Tyrosine-protein kinase Yes (Homo sapiens) (UniProt P07947)", "%", 95],
  ["Nc1ccc2ncnc(NCCc3ccc(Oc4ccccc4)cc3)c2c1", "Tyrosine-protein kinase Yes (Homo sapiens) (UniProt P07947)", "%", 63],
  ["COc1ccc(S(=O)(=O)N(CCO)c2ccccc2CN(C)C/C=C/c2ccc(Cl)cc2)cc1", "Tyrosine-protein kinase Yes (Homo sapiens) (UniProt P07947)", "%", 119],
  ["COc1ccc(CNc2nc(N(CCO)CCO)nc3c2ncn3C(C)C)cc1", "Tyrosine-protein kinase Yes (Homo sapiens) (UniProt P07947)", "%", 100]
]}

Q) Please tell me the measured residual activity for `CC#CC(=O)Nc1cc2c(Nc3ccc(F)c(Cl)c3)ncnc2cn1` ; system: Tyrosine-protein kinase Yes (Homo sapiens) (UniProt P07947).
A) 101

Q) Tell me residual activity of `O=C(Nc1cccc(Nc2nccc(Nc3cccc(C(F)(F)F)c3)n2)c1)C1CC1` when tested on Tyrosine-protein kinase Yes (Homo sapiens) (UniProt P07947).
A) 56

Q) Supply residual activity measured with Tyrosine-protein kinase Yes (Homo sapiens) (UniProt P07947) for `CN(C)CCCn1cc(C2=C(c3c[nH]c4ccccc34)C(=O)NC2=O)c2ccccc21` .
A) 105

Q) Give measured residual activity for O=C1Nc2ccccc2/C1=C1/Nc2ccccc2/C1=N\OCCC(O)CO (stereo not given) (Tyrosine-protein kinase Yes (Homo sapiens) (UniProt P07947)).
A) 8

Q) For Tyrosine-protein kinase Yes (Homo sapiens) (UniProt P07947), give residual activity of the listed compound: `COc1cc2ncnc(Nc3ccc(NC(=O)c4ccccc4)cc3)c2cc1OC`
A) 96
